All figures here come from the SangsterLogP compilation.

logP values, listed per item
Reply with just the number.

Before answering, review these 4 worked examples.
CCCC1(C(=O)OC(C)(C)C)CCC=[N+]1[O-] (stereo unspecified) : 0.43
CCOC(=O)C1(CC)CCC=[N+]1[O-] (stereo unspecified) : -0.6
CCC1(C(=O)OC(C)C)CCC=[N+]1[O-] (stereo unspecified) : -0.18
CCCCOC(=O)C1(CC)CCC=[N+]1[O-] (stereo unspecified) : 0.46

Req: Requested read-out: logP. Entry: CCCOC(=O)C1(CCC)CCC=[N+]1[O-] (stereo unspecified)
Resp: 0.42

Req: Requested read-out: logP. Entry: CCCCOC(=O)C1(CCC)CCC=[N+]1[O-] (stereo unspecified)
Resp: 0.89

Req: Requested read-out: logP. Entry: CC(C)OC(=O)C1(C)CCC=[N+]1[O-] (stereo unspecified)
Resp: -0.7

Req: Requested read-out: logP. Entry: CCC(C)OC(=O)C1(CC)CCC=[N+]1[O-] (stereo unspecified)
Resp: 0.28

----------
# assay_remarks: method code SF, from DOI: 10.1515/bc.2003.056, PMID: 12715901
observable: logP
Reply with just the number.

Before answering, review these 2 worked examples.
CCC1(C(=O)OC(C)(C)C)CCC=[N+]1[O-] (stereo not drawn) : 0.18
CCCC1(C(=O)OC(C)C)CCC=[N+]1[O-] (stereo not drawn) : 0.29

Moving on to the next molecule.
Req: Requested read-out: logP. Entry: CCCOC(=O)C1(CC)CCC=[N+]1[O-] (stereo not drawn)
Resp: -0.11
